Provenance of the data: the RNAGym collection of RNA variant scans (doi:10.7554/elife.80360)

B1: CPEB3 Ribozyme (parent)
chain: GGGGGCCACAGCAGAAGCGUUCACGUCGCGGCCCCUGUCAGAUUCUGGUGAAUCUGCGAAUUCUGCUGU

Variants of: B1
PROTOCOL: self-cleavage, relative activity (ratio to wild type); higher = more cleavage; co-transcriptional
self-cleavage vs 0.8: at or above is criterion met, below is criterion not met.

{"columns": ["VARIANT_DESIGNATION", "ASSIGNED_LABEL"],
 "data": [
  ["G3A G11C", "criterion not met"],
  ["A16U U43A", "criterion not met"],
  ["C6A G31U", "criterion met"],
  ["G14C G68A", "criterion not met"],
  ["A13C A52U", "criterion met"],
  ["U55A U61G", "criterion not met"],
  ["U55G U69A", "criterion met"],
  ["A40C C66G", "criterion not met"],
  ["U44C C54G", "criterion not met"],
  ["A23U U46C", "criterion met"],
  ["A23U U62A", "criterion not met"],
  ["C18G U69G", "criterion not met"],
  ["C54G U62A", "criterion not met"],
  ["G1U C7A", "criterion not met"],
  ["G25A U53A", "criterion not met"],
  ["G14U G47A", "criterion met"],
  ["G25C C39G", "criterion not met"],
  ["U21G A23C", "criterion not met"],
  ["C7U C9G", "criterion met"],
  ["A13U U43C", "criterion not met"]
]}
